# assay method text: qHTS for Inhibitors of the Functional Ribonucleoprotein Complex (vRNP) of Lassa (LASV) Arenavirus: LASV Primary Screen - GLuc reporter signal (AID 1347082); also: nearly all actives have a fitted effect of over 60% in size
# experimental parameters: LASV minigenome vRNP, Gaussia luciferase reporter; series mostly up to 57.5 µM
Records with an inconclusive call do not appear. Active and inactive are the calls of the source. Calls follow the shape of the full dose curve; tested in HEK293 reporter line.
measured endpoint: outcome

* O=C(O)C(O)Cc1ccc(O)c(O)c1 (configuration not stated) | inactive
* COc1cc(C(=O)O[C@H]2C/C(C)=C/CC[C@@]3(C)O[C@@H]3[C@H](O)[C@@H]2C(C)C)cc(OC)c1OC | inactive
* c1ccc(CSCc2ccccc2)cc1 | inactive
* O=C(O)C1CN(CCCP(=O)(O)O)CCN1 (configuration not stated) | inactive
* CN=c1nc(-c2ccccc2)n(-c2ccccc2)s1 | inactive
* Nc1nc2c(c(=O)[nH]1)N(C=O)[C@H](CNc1ccc(C(=O)N[C@@H](CCC(=O)O)C(=O)O)cc1)CN2 | inactive
* C/C=C(\C)C(=O)O[C@H]1CC(C)=C2C(=O)C=C(C)C2[C@@H]2OC(=O)[C@@](C)(OC(=O)C=C(C)C)C21 (some centres not stated) | inactive
* COC(C)(C)[C@@H](O)COc1c2ccoc2cc2oc(=O)ccc12 | inactive
* C[C@H]1O[C@H](OC2[C@@H](O)[C@@H](O)C(O)[C@H](O)[C@H]2O)[C@@H](N)C[C@@H]1N=C(N)C(=O)O (some centres not stated) | inactive
* COc1c(-c2ccc(O)cc2)oc2cc(O)cc(O)c2c1=O | inactive

Provide each entry's outcome from the list below.
1. CCCCCCCCc1ccc(-c2ccc(C(=O)O)cc2)cc1
2. C[C@]12CCC3C(C[C@@H](O)[C@H]4C[C@@H](O)CC[C@]34C)C1CC[C@@H]2O (some centres not stated)
3. CC1=C(C(=O)O)N2C(=O)C(NC(=O)CCCC(=O)O)C2SC1 (configuration not stated)
4. CCCCCC[C@@H]([C@@H](C)O)n1cnc2c(N)ncnc21
5. Nc1ncnc2c1ncn2[C@H]1O[C@H](CO)[C@@H](O)[C@@H]1O
6. CC(N)=O
7. O=S(=O)(c1cccc2c(Cl)cccc12)N1CCCNCC1

Reply:
1. inactive
2. inactive
3. inactive
4. inactive
5. inactive
6. inactive
7. inactive

Provide each entry's outcome from the list below.
1. COc1c2c(c3c(c1OC)c(=O)c1ccccc1n3C)OCO2
2. CCCCCCCCCCCC(=O)c1c(O)cccc1O
3. COc1ccc(/C=C/C(=O)Nc2ccccc2C(=O)O)cc1OC
4. Cn1cc(C(F)(F)F)nc1-c1ccc(OCC(O)CNCCOc2ccc(O)c(C(N)=O)c2)cc1 (configuration not stated)
5. COC1C(O)C(O)C(O)C(O)C1O (configuration not stated)

Reply:
1. inactive
2. inactive
3. inactive
4. inactive
5. inactive
